Recorded interaction score, one value per entry.
- Target System: T1, 4H40-bA
- T1 chain: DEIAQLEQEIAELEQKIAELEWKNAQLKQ
- Experiment: two-hybrid library CCNG1;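 further: natural log of median RNA to DNA barcode read ratio; higher means stronger binding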

Binder: DKIAQLEQKNAELEQEIAELEWKIAQLKQ [4H2438-bA]
interaction score: -0.83
--
Binder: DKIAQLEQEIAELKQENAELEWKIAQLKQ [4H2134-bA]
interaction score: 0.811
--
Binder: DKIAQLEQEIAELKQENAELKWKNAQLEQ [4H2143-bA]
interaction score: -1.53
--
Binder: DKIAQLKQKIAELKQKIAELEWENAQLEQ [4H2915-bA]
interaction score: 1.35
